Parameter: apparent Kd. Scope: all listed entries.
System: MS2 coat protein
protocol.description: apparent Kd, MS2 coat protein; higher = weaker binding; RNA-MaP array; FMN 200 µM where present
test.settings: ligand present: flavin mononucleotide; designed as: OFF switch for flavin mononucleotide
Return type: number; implicit unit nM.

UACAUGAGGAUCACCCAUGUUUUGUCGUGUAUGGUAUUUAUCUAGGAUAUCGUGUUAUUUAACCACGAGAAGGAGAGUAUCAAU : 26.7
GUCCGCUCGUGAGGAUAUACAACACUGCUUCGGCAGUGUAUUAAGAUCACAUGAGGAUCACCCAUGUAGAAGGCACGAGCUGAU : 289

Look up and report measured apparent Kd for this entry: `AUGGACGCAGGAUAUACAUGAGGAUCACCCAUGUUAGGGUUAAGAGAAGGAAGGGAGAGUAGAAGGGCGAGAGU`
89.3

---

Parameter: apparent Kd. Scope: all listed entries.
System: MS2 coat protein
protocol.description: apparent Kd, MS2 coat protein; higher = weaker binding; RNA-MaP array; FMN 200 µM where present
test.settings: designed as: OFF switch for flavin mononucleotide; no ligand
Return type: number; implicit unit nM.

Solved entries (count: 3):
AAACUCAGAGGAUAUACAUAACACAGACUCUUCAUGCGUUCACAUGAGGAUCACCCAUGUAGAAGGCUGACAAC : 23.2
GUCCUCAAGACAGGAUAUCCAUACAACGCGCUAGGAGAAGGGUCUACAUGAGGAUCACCCAUGUGAUUCUGAGAAUUUGGUGGG : 313
GAACUAAAGCAUAGCUUUAGUCGUACAUGAGGAUCACCCAUGUAGGAUAUGGUAGGCAUAGCUUACUAGAAGGAUAGAGUGAUC : 294

Then there is this sequence:
Look up and report measured apparent Kd for this entry: `CACUGCAAUGUAGGAUAUCGACUGGAAUACAGUCGAGAAGGACAUGAGGAUCACCCAUGUACUUUGAGUGAAUAAUAAGCAGUG`
15.9

---

System: MS2 coat protein
protocol.description: apparent Kd, MS2 coat protein; higher = weaker binding; RNA-MaP array
test.settings: ligand present: flavin mononucleotide; designed as: OFF switch for flavin mononucleotide
reported.metric: apparent Kd (nM)
Return type: number; implicit unit nM.

Solved entries (count: 4):
GCACGGCUAGAGAAGGGAAGGUGGAAGAGAUGUGAGGGACAUGAGGAUCACCCAUGUCUUACGAUUCAGGAUAUCUGAGAGGCU : 10.3
UUGUGUUCUUAGGAUAUACAACUUACCAUCAGAGUAGAAGGAAGGACAUGAGGAUCACCCAUGUGGGCUAGCAG : 21.7
CCUCGUAAUGAGGAUAUUAGGAAUUCUGGUCCAUAAGAAGGCAUGACAUGAGGAUCACCCAUGUAGCGGAUGGG : 145
GUUGACGAGUCAGGAUAUGAUUAGUGGGAGAAACAGCAACUCACAUGAGGAUCACCCAUGUAUGUUCAGAAGGGACGCCGAUCA : 183

Look up and report measured apparent Kd for this entry: `AUGAGCUGAGGAUAUAUUAACCUGUACAUGAGGAUCACCCAUGUAGCGUGUAGAGUGAGAAUAGAAGGCAGACAUC`
12.8

Look up and report measured apparent Kd for this entry: `UCUUGAGGCUAGGAUAUCAUACAUAAAAGCAACUGAGAAGGAGCCACAUGAGGAUCACCCAUGUAUCCGUUAUG`
71.6

Look up and report measured apparent Kd for this entry: `GGACGGUGGUGAGGAUAUUGUCACAUGAGGAUCACCCAUGUCGUCUGGGAGCGGACUCCUCGGUCCAAGAAGGCACGACCAGCC`
431

Look up and report measured apparent Kd for this entry: `UACGAGUAAGGAUAUACACUGACCCAAAGAGUACAGAAAAUGUAGAAGGUACAUGAGGAUCACCCAUGUAGGUG`
94.3

---

Tested on: MS2 coat protein
protocol.description: apparent Kd, MS2 coat protein; higher = weaker binding; RNA-MaP array
test.settings: ligand present: flavin mononucleotide; designed as: ON switch for flavin mononucleotide
Parameter: apparent Kd. Scope: all listed entries.
Return type: number; implicit unit nM.

Solved entries (count: 5):
CGCGGAACAUGAGGAUCACCCAUGUUAUGUAACAGCAAACUAAGAAGGCGUUAUAUAAGUAUGGACGAGGAUAUUAGCUUGAGU : 8.8
AUCGGUAAAACUCAGGAUAUAGAAAUAGACACAUGAGGAUCACCCAUGUUAACUACACAAAGAAUCUAGAAGGGAGCAGGUGUCUA : 44.9
AAGACGAAGAAGAAGGGCAUACAUGAGGAUCACCCAUGUGAAAAUGUGCUGAAAGAACAUAAAUUGCAGGAUAUUCACACAAGU : 6.42
GACGAGUGCGAGUCACAUGAGGAUCACCCAUGUAACCAUGGGCAGGAUAUCUACCAGUUACUUUCAGAGAAGGGCCAACGAACU : 108
GUACCACUCAAGAAGGACCUAGUUCACUAACCUGUGACAUGAGGAUCACCCAUGUGGCUAUUGCGGUAGGAUAUUGAAGACCGG : 69.1

Look up and report measured apparent Kd for this entry: `CAAUAUUUCCAGAAGGGCAAGCUAACACCAACUGCAGGAUAUGGUUUCAUACAACAUGAGGAUCACCCAUGUGGCACAGGUUCC`
17.2

Look up and report measured apparent Kd for this entry: `UCGGAAAAGAAAGGAUAUCGCAUGGAUUGUUGUCGAGAAGGUUCAAAUCGACAUGAGGAUCACCCAUGUCGAGUCCAUACUCCU`
53.7

---

System: MS2 coat protein
protocol.description: apparent Kd, MS2 coat protein; higher = weaker binding; RNA-MaP array; FMN 200 µM where present
test.settings: designed as: OFF switch for flavin mononucleotide; no ligand
Parameter: apparent Kd. Scope: all listed entries.
Return type: number; implicit unit nM.

Solved entries (count: 3):
UGGGAACGAGGAUAUCGAUGGUGGAACAUGAGGAUCACCCAUGUAUGAGAUAGUGUAGUUCGAGAAGGCGUUAAGU : 68.6
CGAGUUUUUGAGAAGGCAUAAUAUAUAAUACCACAUGUUUACAUGAGGAUCACCCAUGUUUCCUAUGAGGAUAUCAGAAUAUCG : 16.1
GUCACUAGAGGAUAUACAAUGGUAUAUGAUCCUAGAGACAUACAUGAGGAUCACCCAUGUAGAAGGCUAGUAAU : 81.7

Look up and report measured apparent Kd for this entry: `CCCGGUCUGGAGGAUAUUAUAGAGCGUGCUUAAUAAGAAGGUCAGACAUGAGGAUCACCCAUGUUCUUACCCGG`
23.3

Look up and report measured apparent Kd for this entry: `AUUAUAUAGACAGGAUAUUGAUUAUUAUUUUAACAUGAGGAUCACCCAUGUAGCCUUAUGUAUAGCAAGAAGGGUCAUUUAUUA`
135

Look up and report measured apparent Kd for this entry: `GUACUGACAGGAUAUACAUGAGGAUCACCCAUGUCCUUAUGCUGACAAAAGUCAGCGUGUAGAAGGGUCUGUAC`
141

Look up and report measured apparent Kd for this entry: `GGUCCUUCUGUUAGGAUAUGCUUUGGGCUUCCGCAGUAGAAGGAACAUGAGGAUCACCCAUGUCCGAUGCCGUA`
65.3

---

Test system: MS2 coat protein
protocol.description: apparent Kd, MS2 coat protein; higher = weaker binding; RNA-MaP array; FMN 200 µM where present
test.settings: ligand present: flavin mononucleotide; designed as: OFF switch for flavin mononucleotide
Lab note: anything with apparent Kd at or over 100 nM counts as true; the rest go in false.

Some solved entries appear below for comparison.
AACUAGCUAGGAUAUACAUGAGGAUCACCCAUGUAAAAAAAAAAAAAAAGAUCAAAAUGUAGAAGGAGCUAGUA : true
CGCUAAUAAAUAGUAAUAAAAGUACAGGAUAUGUUACAUGAGGAUCACCCAUGUAUUGGGUAAGAACAGAAGGGUAUAUUAGCG : true
CGGCACCAAGGAUAUACAUGAGGAUCACCCAUGUUUUUUGGGCCCUAAAGAUCUACGUGUAGAAGGUGGGUCGA : false
GGCAUGUGAGGAUAUCUGAUGUCUAACUUCGGUUAGACAUCAGAGAAGGCACAUGAGGAUCACCCAUGUCUGCC : false
GGAUUACAAAUUUAUUUAAUUCACAUGAGGAUCACCCAUGUGUAGGAUAUGCUAGUUAAGUAAUAGCAGAAGGACAUGUGCCUU : false
AUUCAGCGAGGAUAUACAGGUUCUGGGUGAGGCUCGGCGAGACAUGAGGAUCACCCAUGUAGAAGGUGCUAGCC : true

Read the next record carefully.
apparent Kd >= 100 nM for `UUUAUAUAGUAAGGAUAUGUAUUAUUUUUUACAACAGAAGGUACUGACAUGAGGAUCACCCAUGUUUUAGUGUGGGCAUGUAGU` ?
true

---

Tested on: MS2 coat protein
protocol.description: apparent Kd, MS2 coat protein; higher = weaker binding; RNA-MaP array; FMN 200 µM where present
test.settings: ligand present: flavin mononucleotide; designed as: OFF switch for flavin mononucleotide
reported.metric: apparent Kd
Please give the number followed by its unit.

UCAUGAUAUGUAGGAUAUCACAUUUAUUGAUUAAUAUAUGAAUAUAGAAUUUGAGAAGGACAUUUACAUGAGGAUCACCCAUGU : 0.0167 µM

Look up and report measured apparent Kd for this entry: `UAGCUCUCGGCAGGAUAUCCUGCAUAAUGUCGAGUCCGCGCCCGGACAUGAGGAUCACCCAUGUAGGAGAAGGGCCCACGGGCU`
0.0455 µM

Look up and report measured apparent Kd for this entry: `UGAAAGUGAGGAUAUGGUGAGUAGUGCCUGAGCGCUGCUCACCAGAAGGCACAUGAGGAUCACCCAUGUAAAUG`
0.17 µM

Look up and report measured apparent Kd for this entry: `UGUCCAUAGCAGAAGGACAUAAAUACAUGACCAAACAUGAGGAUCACCCAUGUAGGAUAUGCUAUGGACUAAGAGCGAAAGCUC`
0.00931 µM

Look up and report measured apparent Kd for this entry: `CAGUACUGAGGAUAUACAUGAGGAUCACCCAUGUGUUCCAGCUAGGAAACUAGCAAAAGUAGAAGGUAGUACUG`
0.0565 µM

Look up and report measured apparent Kd for this entry: `GUCAGCUCGUGAGGAUAUACAUGUGCUGGAGACAGCACUAAUAGAAUCACAUGAGGAUCACCCAUGUAGAAGGCACGAGCUGAU`
0.0412 µM

Look up and report measured apparent Kd for this entry: `AAGUAGAUCCGAGGAUAUACAAUCUGGAAUCGGUACAUGAGGAUCACCCAUGUAGAAGGCGGAUCUACAGGUACUAAAGUACCA`
0.0388 µM

Look up and report measured apparent Kd for this entry: `GUGGCAUGAGGAUAUCGAGGUUAGUACAUGAGGAUCACCCAUGUUAUCCAGGUGUCGGUUCGAGAAGGCAUGGCAC`
0.302 µM

Look up and report measured apparent Kd for this entry: `UGUGUCCGUAGAGGAUAUCCGGGCGUUCGGCUAGGAGAAGGCUGCGACACAUGAGGAUCACCCAUGUAGGUUGUGUCUCUCUAC`
0.275 µM

Look up and report measured apparent Kd for this entry: `CGGAUUAUGUGAGGAUAUAAUCGUUUCCAUUGAUUAGAAGGCACAUGAGGAUCACCCAUGUGGCAUGUAAUGCCAUGUGACGCU`
0.0413 µM

Look up and report measured apparent Kd for this entry: `GGUUGUCAUAGUCAUCCUUAACGUACAUGAGGAUCACCCAUGUAGGAUAUGCUACUCAAAGAGUAGCAGAAGGGCGUGUGUCUU`
0.0355 µM

Reference source for all entries: the EternaBench riboswitch data
